For each record, write down the corresponding Plant response rating, Goosegrass.
Tested on: goosegrass (Eleusine indica)
ASSAY_EXPLANATION: Test A1 preemergence, goosegrass
Format: in vivo
EXPERIMENTAL_CONDITIONS: 125 g ai/ha, 0 to 100 scale, 0 no effect, 100 complete control
Text: […]
One number for each entry.

[[record]]
molecule = "Cc1cc(F)c(C2=NOC3CCCC23)cc1NS(=O)(=O)C(F)(F)F (stereo not shown)"
assayed_system = "goosegrass (Eleusine indica)"
result_value = 0

[[record]]
molecule = "CCOC(=O)N(c1cc(C(=O)N2C[C@@H](C)O[C@H](C)C2)c(C)c(C)c1C)S(=O)(=O)C(F)(F)F (relative stereo)"
assayed_system = "goosegrass (Eleusine indica)"
result_value = 100

[[record]]
molecule = "COCC1CC(c2cc(N(COC(=O)C(C)(C)C)S(=O)(=O)C(F)(F)F)c(C)cc2C)=NO1 (stereo not shown)"
assayed_system = "goosegrass (Eleusine indica)"
result_value = 100


Give measured Plant response rating, Goosegrass for every item shown.
1. Cc1cc(C)c(N(COC(=O)C(C)(C)C)S(=O)(=O)C(F)(F)F)cc1C1=NOC2COCC12 (stereo not shown)
2. CCOC(=O)N(c1cc(C(=O)N2CCC(c3ccccc3)CC2)c(C)cc1C)S(=O)(=O)C(F)(F)F
3. Cc1cc(C)c(N(COC(=O)OC(C)(C)C)S(=O)(=O)C(F)(F)F)cc1C1=NOC2CCCC12 (stereo not shown)

100
90
90

# get_value(readout='Plant response rating, Goosegrass', item= Cc1cc(C)c(N(COC(=O)C(C)(C)C)S(=O)(=O)C(F)(F)F)cc1N1CCC2(CCC(C(F)(F)F)CC2)C1=O (stereo not shown) )
0

###

System: Ryegrass, Italian (Italian ryegrass, Lolium multiflorum)
ASSAY_EXPLANATION: Test A1 postemergence, Ryegrass, Italian
Assay type: in vivo
EXPERIMENTAL_CONDITIONS: Postemergence, 31 g ai/ha; 0 to 100 scale (0 no effect, 100 complete control); 10 days
For each record, write down the corresponding Plant response rating, Ryegrass, Italian.
Answers are plain numbers.

# example entries with known answers
[[record]]
compound = "CCOC(=O)N(c1cc(C(=O)N2CCCCC2)c(C)c(C)c1C)S(=O)(=O)C(F)(F)F"
measured_parameter = "Plant response rating, Ryegrass, Italian"
result_value = 0

[[record]]
compound = "CCOC(=O)N(c1cc(C(=O)N2CCC(c3ccccc3)CC2)c(C)cc1C)S(=O)(=O)C(F)(F)F"
measured_parameter = "Plant response rating, Ryegrass, Italian"
result_value = 0

[[record]]
compound = "Cc1cc(F)c(C2=NOC3CCCC23)cc1NS(=O)(=O)C(F)(F)F (centres unmarked)"
measured_parameter = "Plant response rating, Ryegrass, Italian"
result_value = 20

[[record]]
compound = "CCC1ON=C(c2cc(N(COC(=O)C(C)(C)C)S(=O)(=O)C(F)(F)F)c(C)cc2C)C1CC (centres unmarked) [Compound 347]"
measured_parameter = "Plant response rating, Ryegrass, Italian"
result_value = 0

[[record]]
compound = "CCOC(=O)N(c1cc(C(=O)N2CCSCC2)c(C)c(C)c1C)S(=O)(=O)C(F)(F)F"
measured_parameter = "Plant response rating, Ryegrass, Italian"
result_value = 0


Give measured Plant response rating, Ryegrass, Italian for every item shown.
1. Cc1c(C(=O)N2CCCCC2)cc(NS(=O)(=O)C(F)(F)F)c(Cl)c1F
2. Cc1cc(C)c(C2=NOC3(C)CCCC23)cc1NS(=O)(=O)C(F)(F)F (centres unmarked)
3. Cc1c(NS(=O)(=O)C(F)(F)F)cc(C(=O)N2CCOCC2)c(C)c1C
4. Cc1c(NS(=O)(=O)C(F)(F)F)cc(C(=O)N(C)C)c(C)c1C
5. CCC1ON=C(c2cc(N(COC(=O)C(C)(C)C)S(=O)(=O)C(F)(F)F)c(C)cc2C)C1CC (centres unmarked) [Compound 344]
6. Cc1c(C2=NO[C@@H]3CCC[C@H]23)cc(N(COC(=O)C(C)(C)C)S(=O)(=O)C(F)(F)F)c(C)c1C

1. 0
2. 0
3. 30
4. 0
5. 30
6. 0

###

System: corn (Zea mays)
ASSAY_EXPLANATION: Test A postemergence, corn
Type: in vivo
EXPERIMENTAL_CONDITIONS: Postemergence, 500 g ai/ha; visual injury vs untreated controls after approx. 10 days; 0 to 100 scale (0 no effect, 100 complete control)
# t = Corn plant response rating below 10 (exclusive); f = Corn plant response rating at/above 10

[[record]]
compound = "Cc1cc(C)c(N(S(=O)(=O)C(F)(F)F)S(=O)(=O)C(F)(F)F)cc1C1=NOC(C(C)(C)C)C1 (stereo not shown)"
classification = "f"

[[record]]
compound = "Cc1cc(C)c(N(S(=O)(=O)C(F)(F)F)S(=O)(=O)C(F)(F)F)cc1C1=NOC2(CCC(C)(C)CC2)C1"
classification = "t"

[[record]]
compound = "CCn1nccc(-c2cc(NS(=O)(=O)C(F)(F)F)c(C)cc2C)c1=O"
classification = "f"

[[record]]
compound = "Cc1cc(C)c(N(S(=O)(=O)C(F)(F)F)S(=O)(=O)C(F)(F)F)cc1C(=O)N1CCC(F)(F)CC1"
classification = "f"


Now look at this one.
Identify whether the compound Cc1cc(-c2cc(N(S(=O)(=O)C(F)(F)F)S(=O)(=O)C(F)(F)F)c(C)cc2C)c(=O)n(C)n1 records Corn plant response rating below 10.
t

###

Test system: kochia (Bassia scoparia)
ASSAY_EXPLANATION: Test A preemergence, kochia
Format: in vivo
EXPERIMENTAL_CONDITIONS: Preemergence, 500 g ai/ha; 0 to 100 scale (0 no effect, 100 complete control)
For each record, write down the corresponding Plant response rating, Kochia.

[[record]]
molecule = "C#CCN(C)C(=O)c1cc(N(S(=O)(=O)C(F)(F)F)S(=O)(=O)C(F)(F)F)c(C)c(F)c1C"
assayed_system = "kochia (Bassia scoparia)"
result_value = 90

[[record]]
molecule = "Cc1cc(C)c(C(=O)N2CCC(F)(F)C2)cc1NS(=O)(=O)C(F)(F)F"
assayed_system = "kochia (Bassia scoparia)"
result_value = 80

[[record]]
molecule = "Cc1ccc(-c2ccnn(C)c2=O)cc1NS(=O)(=O)C(F)(F)F"
assayed_system = "kochia (Bassia scoparia)"
result_value = 90

[[record]]
molecule = "Cc1cc(F)c(-c2ccnn(C)c2=O)cc1NS(=O)(=O)C(F)(F)F"
assayed_system = "kochia (Bassia scoparia)"
result_value = 90

[[record]]
molecule = "Cc1cc(C(F)(F)F)c(NS(=O)(=O)C(F)(F)F)cc1C(=O)N1CCCCC1"
assayed_system = "kochia (Bassia scoparia)"
result_value = 100


Give measured Plant response rating, Kochia for every item shown.
1. Cc1cc(C)c(C2=NOC3(C2)CC(C)(C)CC(C)(C)C3)cc1NS(=O)(=O)C(F)(F)F
2. Cc1cc(Cl)c(NS(=O)(=O)C(F)(F)F)cc1-c1cn(C)c(=O)n(C)c1=O
3. C#CCN(CC#C)C(=O)c1cc(N(S(=O)(=O)C(F)(F)F)S(=O)(=O)C(F)(F)F)c(C)cc1C

30
90
100

Give measured Plant response rating, Kochia for every item shown.
1. Cc1cc(C)c(N(S(=O)(=O)C(F)(F)F)S(=O)(=O)C(F)(F)F)cc1-c1cc(Br)nn(C)c1=O
2. Cc1cc(C)c(C(=O)N(C)CC2CC2)cc1NS(=O)(=O)C(F)(F)F
3. Cc1cc(C)c(C2=NOC3CCCC23)cc1NS(=O)(=O)C(F)(F)F (stereo not drawn) [Compound 166]
4. Cc1cc(C)c(-c2cc(Br)nn(C)c2=O)cc1NS(=O)(=O)C(F)(F)F

70
50
100
90

Give measured Plant response rating, Kochia for every item shown.
1. CCc1cc(-c2cc(N(S(=O)(=O)C(F)(F)F)S(=O)(=O)C(F)(F)F)c(C)cc2C)c(=O)n(C)n1
2. Cc1cc(-c2cc(N(S(=O)(=O)C(F)(F)F)S(=O)(=O)C(F)(F)F)c(C)cc2C)c(=O)n(C)n1
3. Cc1cc(C)c(N(S(C)(=O)=O)S(=O)(=O)C(F)(F)F)cc1-c1ccnn(C)c1=O
4. Cc1cc(C)c(N(S(=O)(=O)C(F)(F)F)S(=O)(=O)C(F)(F)F)cc1C1=NOC2CCCC12 (stereo not drawn)
5. Cc1cc(Cl)c(C2=NOC(C)(C)C2)cc1N(S(=O)(=O)C(F)(F)F)S(=O)(=O)C(F)(F)F

90
100
90
100
0

###

For each record, write down the corresponding Plant response rating, Foxtail, Giant.
System: Foxtail, Giant (giant foxtail, Setaria faberi)
ASSAY_EXPLANATION: Test A postemergence, Foxtail, Giant
Format: in vivo
EXPERIMENTAL_CONDITIONS: Postemergence, 125 g ai/ha; visual injury approx. 10 days; 0 to 100 scale (0 no effect, 100 complete control)

[[record]]
molecule = "Cc1cc(C)c(N(S(=O)(=O)C(F)(F)F)S(=O)(=O)C(F)(F)F)cc1C1=NOC2(CCSCC2)C1 [Compound 114]"
measured_parameter = "Plant response rating, Foxtail, Giant"
result_value = 50

[[record]]
molecule = "COc1c(Cl)nn(C)c(=O)c1-c1cc(NS(=O)(=O)C(F)(F)F)c(C)cc1C [Compound 64]"
measured_parameter = "Plant response rating, Foxtail, Giant"
result_value = 0

[[record]]
molecule = "Cc1cc(C#N)c(C(=O)N(C)C)cc1NS(=O)(=O)C(F)(F)F [Compound 134]"
measured_parameter = "Plant response rating, Foxtail, Giant"
result_value = 0

[[record]]
molecule = "Cc1cc(C)c(N(S(C)(=O)=O)S(=O)(=O)C(F)(F)F)cc1-c1cc(Cl)nn(C)c1=O [Compound 46]"
measured_parameter = "Plant response rating, Foxtail, Giant"
result_value = 0

[[record]]
molecule = "COC1CCN(C(=O)c2cc(NS(=O)(=O)C(F)(F)F)c(C)cc2C)C1 (centres unmarked) [Compound 113]"
measured_parameter = "Plant response rating, Foxtail, Giant"
result_value = 30


Give measured Plant response rating, Foxtail, Giant for every item shown.
1. Cc1cc(C)c(-c2cc(C(F)(F)F)nn(C)c2=O)cc1NS(=O)(=O)C(F)(F)F [Compound 71]
2. Cc1cc(C#N)c(C(=O)N2CCCCC2)cc1NS(=O)(=O)C(F)(F)F [Compound 126]
3. Cc1cc(Cl)c(NS(=O)(=O)C(F)(F)F)cc1C(=O)N1CCSCC1 [Compound 26]

[0, 0, 10]
